Recorded measurements of Ki, one per entry
- target.under.test: GST-MCL-1 (Homo sapiens (Human))
- assay.protocol: TR-FRET MCL-1 binding assay (competition with probe F-Bak)
- study.conditions: read-out: MCL-1 Binding Ki (nM, 10% HS), in the presence of 10% HS

compound: Cc1c(Cl)c2c(Cl)c(C)c1-c1c(-c3ccc(F)cc3)sc3ncnc(c13)O[C@@H](C(=O)O)Cc1cc(ccc1OCc1ccnc(-c3ccc(OC[C@H]4COCCO4)nc3)n1)OC[C@@H](CN1CCN(C)CC1)O2 [Example 5]
target.under.test: GST-MCL-1 (Homo sapiens (Human))
Ki: 0.71 nM
--
compound: Cc1c(Cl)c2c(Cl)c(C)c1-c1c(-c3ccc(F)cc3)sc3ncnc(c13)O[C@@H](C(=O)O)Cc1cc(ccc1OCc1ccnc(-c3ccc(NC[C@@H]4COCCO4)nc3)n1)OC[C@@H](CN1CCN(C)CC1)O2 [Example 41]
target.under.test: GST-MCL-1 (Homo sapiens (Human))
Ki: 0.14 nM
--
compound: Cc1c(Cl)c2c(Cl)c(C)c1-c1c(-c3ccc(F)cc3)sc3ncnc(c13)O[C@@H](C(=O)O)Cc1cc(ccc1OCc1ccnc([C@H]3CC[C@@H](COC[C@H]4COCCO4)CC3)n1)OC[C@@H](CN1CCN(C)CC1)O2 [Example 50]
target.under.test: GST-MCL-1 (Homo sapiens (Human))
Ki: 0.249 nM
--
compound: Cc1c(Cl)c2c(Cl)c(C)c1-c1c(C3=CCCC3)sc3ncnc(c13)O[C@@H](C(=O)O)Cc1cc(ccc1OCc1ccnc(C3=CC[C@](F)(COC[C@H]4COCCO4)CC3)n1)OC[C@@H](CN1CCN(C)CC1)O2 [Example 34]
target.under.test: GST-MCL-1 (Homo sapiens (Human))
Ki: 0.54 nM
--
compound: Cc1c(Cl)c2c(Cl)c(C)c1-c1c(-c3ccc(F)cc3)sc3ncnc(c13)O[C@@H](C(=O)O)Cc1cc(ccc1OCc1ccnc(OC[C@@H]3COCCO3)n1)OC[C@@H](CN1CCN(C)CC1)O2 [Example 24]
target.under.test: GST-MCL-1 (Homo sapiens (Human))
Ki: 0.38 nM
--
compound: Cc1c(Cl)c2c(Cl)c(C)c1-c1c(-c3ccc(F)cc3)sc3ncnc(c13)O[C@@H](C(=O)O)Cc1cc(ccc1OCc1ccnc(N3CC(COC[C@@H]4COCCO4)C3)n1)OC[C@@H](CN1CCN(C)CC1)O2 [Example 13]
target.under.test: GST-MCL-1 (Homo sapiens (Human))
Ki: 1.07 nM
--
compound: COc1ccccc1-c1nccc(COc2ccc3cc2C[C@H](C(=O)O)Oc2ncnc4sc(C[C@@H]5COCCO5)c(c24)-c2c(C)c(Cl)c(c(Cl)c2C)O[C@H](CN2CCN(C)CC2)CO3)n1 [Example 18]
target.under.test: GST-MCL-1 (Homo sapiens (Human))
Ki: 0.24 nM
--
compound: Cc1c(Cl)c2c(Cl)c(C)c1-c1c(-c3ccc(F)cc3)sc3ncnc(c13)O[C@@H](C(=O)O)Cc1cc(ccc1OCc1ccnc(-c3cccc(OC[C@@H]4COCCO4)c3)n1)OC[C@@H](CN1CCN(C)CC1)O2 [Example 22]
target.under.test: GST-MCL-1 (Homo sapiens (Human))
Ki: 0.89 nM
--
compound: Cc1c(Cl)c2c(Cl)c(C)c1-c1c(-c3ccc(F)cc3)sc3ncnc(c13)O[C@@H](C(=O)O)Cc1cc(ccc1OCc1ccnc(N3CCC(F)(COC[C@@H]4COCCO4)CC3)n1)OC[C@@H](CN1CCN(C)CC1)O2 [Example 8]
target.under.test: GST-MCL-1 (Homo sapiens (Human))
Ki: 2.27 nM
--
compound: Cc1c(Cl)c2c(Cl)c(C)c1-c1c(C3=CCCC3)sc3ncnc(c13)O[C@@H](C(=O)O)Cc1cc(ccc1OCc1ccnc(C3=CC[C@@](F)(COC[C@H]4COCCO4)CC3)n1)OC[C@@H](CN1CCN(C)CC1)O2 [Example 48]
target.under.test: GST-MCL-1 (Homo sapiens (Human))
Ki: 0.648 nM
--
compound: Cc1c(Cl)c2c(Cl)c(C)c1-c1c(-c3ccc(F)cc3)sc3ncnc(c13)O[C@@H](C(=O)O)Cc1cc(ccc1OCc1ccnc(N3CCN(S(=O)(=O)CC4COCCO4)CC3)n1)OC[C@@H](CN1CCN(C)CC1)O2 (stereo partly drawn) [Example 26]
target.under.test: GST-MCL-1 (Homo sapiens (Human))
Ki: 1 nM
--
compound: Cc1c(Cl)c2c(Cl)c(C)c1-c1c(C3=CCCC3)sc3ncnc(c13)O[C@@H](C(=O)O)Cc1cc(ccc1OCc1ccnc(C3=CC[C@@](F)(COC[C@@H]4COCCO4)CC3)n1)OC[C@@H](CN1CCN(C)CC1)O2 [Example 38]
target.under.test: GST-MCL-1 (Homo sapiens (Human))
Ki: 0.63 nM
--
compound: Cc1c2ccc(c1Cl)O[C@H](CN1CCN(C)CC1)COc1ccc(OCc3ccnc(C4COCCO4)n3)c(c1)C[C@H](C(=O)O)Oc1ncnc3sc(-c4ccc(F)cc4)c-2c13 (stereo partly drawn) [Example 4]
target.under.test: GST-MCL-1 (Homo sapiens (Human))
Ki: 0.32 nM
--
compound: Cc1c(Cl)c2c(Cl)c(C)c1-c1c(-c3ccc(F)cc3)sc3ncnc(c13)O[C@@H](C(=O)O)Cc1cc(ccc1OCc1ccnc([C@H]3CC[C@@H](OCC4COCCO4)CC3)n1)OC[C@@H](CN1CCN(C)CC1)O2 (stereo partly drawn) [Example 15]
target.under.test: GST-MCL-1 (Homo sapiens (Human))
Ki: 0.15 nM
--
compound: Cc1c(Cl)c2c(Cl)c(C)c1-c1c(-c3ccc(F)cc3)sc3ncnc(c13)O[C@@H](C(=O)O)Cc1cc(ccc1OCc1ccnc([C@H]3CC[C@](F)(COC[C@@H]4COCCO4)CC3)n1)OC[C@@H](CN1CCN(C)CC1)O2 [Example 28]
target.under.test: GST-MCL-1 (Homo sapiens (Human))
Ki: 0.18 nM
--
compound: Cc1c(Cl)c2c(Cl)c(C)c1-c1c(-c3ccc(F)cc3)sc3ncnc(c13)O[C@@H](C(=O)O)Cc1cc(ccc1OCc1ccnc([C@H]3CC[C@H](OC[C@@H]4COCCO4)CC3)n1)OC[C@@H](CN1CCN(C)CC1)O2 [Example 44]
target.under.test: GST-MCL-1 (Homo sapiens (Human))
Ki: 0.16 nM
--
compound: Cc1c(Cl)c2c(Cl)c(C)c1-c1c(-c3ccc(F)cc3)sc3ncnc(c13)O[C@@H](C(=O)O)Cc1cc(ccc1OCc1ccnc(N3CCC(OC[C@H]4COCCO4)CC3)n1)OC[C@@H](CN1CCN(C)CC1)O2 [Example 10]
target.under.test: GST-MCL-1 (Homo sapiens (Human))
Ki: 3.07 nM
--
compound: Cc1c(Cl)c2c(Cl)c(C)c1-c1c(-c3ccc(F)cc3)sc3ncnc(c13)O[C@@H](C(=O)O)Cc1cc(ccc1OCc1ccnc(C3=CC[C@@](F)(COC[C@@H]4COCCO4)CC3)n1)OC[C@@H](CN1CCN(C)CC1)O2 [Example 42]
target.under.test: GST-MCL-1 (Homo sapiens (Human))
Ki: 0.24 nM

====

- target.under.test: GST-MCL-1 (Homo sapiens (Human), UniProt Q07820)
- Sequence (Q07820 whole entry): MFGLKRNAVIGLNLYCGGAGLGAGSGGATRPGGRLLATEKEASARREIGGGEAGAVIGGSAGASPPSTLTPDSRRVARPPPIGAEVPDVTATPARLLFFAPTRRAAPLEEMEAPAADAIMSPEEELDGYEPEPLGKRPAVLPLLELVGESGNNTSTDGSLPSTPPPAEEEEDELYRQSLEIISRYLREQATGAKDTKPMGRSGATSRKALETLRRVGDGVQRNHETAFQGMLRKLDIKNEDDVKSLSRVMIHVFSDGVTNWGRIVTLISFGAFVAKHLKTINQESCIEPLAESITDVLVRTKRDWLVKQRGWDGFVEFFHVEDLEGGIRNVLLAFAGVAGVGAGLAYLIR
- assay.protocol: TR-FRET MCL-1 binding assay (competition with probe F-Bak)
- study.conditions: without HS, read-out: MCL-1 Binding Ki
measurement.type: Ki (nM)

compound: Cc1c(Cl)c2c(Cl)c(C)c1-c1c(-c3ccc(F)cc3)sc3ncnc(c13)O[C@@H](C(=O)O)Cc1cc(ccc1OCc1cc(-c3ccc(OC[C@H]4COCCO4)cc3)ncn1)OC[C@@H](CN1CCN(C)CC1)O2 [Example 31]
measurement.type: Ki
readout.relation: =
val: 0.373
//
compound: Cc1c(Cl)c2c(Cl)c(C)c1-c1c(C3=CCCC3)sc3ncnc(c13)O[C@@H](C(=O)O)Cc1cc(ccc1OCc1ccnc(C3=CC[C@@](F)(COC[C@H]4COCCO4)CC3)n1)OC[C@@H](CN1CCN(C)CC1)O2 [Example 48]
measurement.type: Ki
readout.relation: =
val: 0.026
//
compound: Cc1c(Cl)c2c(Cl)c(C)c1-c1c(-c3ccc(F)cc3)sc3ncnc(c13)O[C@@H](C(=O)O)Cc1cc(ccc1OCc1ccnc([C@H]3CC[C@H](COC[C@@H]4COCCO4)CC3)n1)OC[C@@H](CN1CCN(C)CC1)O2 [Example 49]
measurement.type: Ki
readout.relation: <
val: 0.01
//
compound: Cc1c(Cl)c2c(Cl)c(C)c1-c1c(-c3ccc(F)cc3)sc3ncnc(c13)O[C@@H](C(=O)O)Cc1cc(ccc1OCc1ccnc(C3=CC[C@](F)(COC[C@H]4COCCO4)CC3)n1)OC[C@@H](CN1CCN(C)CC1)O2 [Example 40]
measurement.type: Ki
readout.relation: =
val: 0.014

====

- target.under.test: UniProt:Q07820
- assay.protocol: TR-FRET MCL-1 binding assay (competition with probe F-Bak)
- study.conditions: without HS, read-out: MCL-1 Binding Ki

molecule: Cc1c(Cl)c2c(Cl)c(C)c1-c1c(-c3ccc(F)cc3)sc3ncnc(c13)O[C@@H](C(=O)O)Cc1cc(ccc1OCc1ccnc([C@H]3CC[C@H](OC[C@H]4COCCO4)CC3)n1)OC[C@@H](CN1CCN(C)CC1)O2
target.under.test: UniProt:Q07820
Ki, nM: 0.005
//
molecule: Cc1c(Cl)c2c(Cl)c(C)c1-c1c(-c3ccc(F)cc3)sc3ncnc(c13)O[C@@H](C(=O)O)Cc1cc(ccc1OCc1ccnc(-c3ccc(OC[C@H]4COCCO4)cc3)n1)OC[C@@H](CN1CCN(C)CC1)O2
target.under.test: UniProt:Q07820
Ki, nM: 0.052
//
molecule: Cc1c(Cl)c2c(Cl)c(C)c1-c1c(-c3ccc(F)cc3)sc3ncnc(c13)O[C@@H](C(=O)O)Cc1cc(ccc1OCc1ccnc([C@H]3CC[C@@H](COC[C@H]4COCCO4)CC3)n1)OC[C@@H](CN1CCN(C)CC1)O2
target.under.test: UniProt:Q07820
Ki, nM: 0.022
//
molecule: Cc1c(Cl)c2c(Cl)c(C)c1-c1c(-c3ccc(F)cc3)sc3ncnc(c13)O[C@@H](C(=O)O)Cc1cc(ccc1OCc1ccnc(-c3cccc(OC[C@H]4COCCO4)c3)n1)OC[C@@H](CN1CCN(C)CC1)O2
target.under.test: UniProt:Q07820
Ki, nM: 0.011
//
molecule: Cc1c(Cl)c2c(Cl)c(C)c1-c1c(-c3ccc(F)cc3)sc3ncnc(c13)O[C@@H](C(=O)O)Cc1cc(ccc1OCc1ccnc([C@H]3CC[C@](F)(COC[C@H]4COCCO4)CC3)n1)OC[C@@H](CN1CCN(C)CC1)O2
target.under.test: UniProt:Q07820
Ki, nM: 0.004
//
molecule: Cc1c(Cl)c2c(Cl)c(C)c1-c1c(-c3ccc(F)cc3)sc3ncnc(c13)O[C@@H](C(=O)O)Cc1cc(ccc1OCc1ccnc(-c3ccccc3OCC3COC(C)(C)O3)n1)OC[C@@H](CN1CCN(C)CC1)O2 (stereo in doubt)
target.under.test: UniProt:Q07820
Ki, nM: 0.033
//
molecule: Cc1c(Cl)c2c(Cl)c(C)c1-c1c(C3=CCCC3)sc3ncnc(c13)O[C@@H](C(=O)O)Cc1cc(ccc1OCc1ccnc([C@H]3CC[C@](F)(COC[C@@H]4COCCO4)CC3)n1)OC[C@@H](CN1CCN(C)CC1)O2
target.under.test: UniProt:Q07820
Ki, nM: 0.023
//
molecule: Cc1c(Cl)c2c(Cl)c(C)c1-c1c(-c3ccc(F)cc3)sc3ncnc(c13)O[C@@H](C(=O)O)Cc1cc(ccc1OCc1ccnc(C3COCCOC3)n1)OC[C@@H](CN1CCN(C)CC1)O2
target.under.test: UniProt:Q07820
Ki, nM: 0.015
//
molecule: Cc1c(Cl)c2c(Cl)c(C)c1-c1c(-c3ccc(F)cc3)sc3ncnc(c13)O[C@@H](C(=O)O)Cc1cc(ccc1OCc1ccnc(-c3ccc(NC[C@@H]4COCCO4)nc3)n1)OC[C@@H](CN1CCN(C)CC1)O2
target.under.test: UniProt:Q07820
Ki, nM: 0.009
